# maps each entry to its apparent Kd
Tested on: MS2 coat protein
Assay Method Text: apparent Kd, MS2 coat protein; higher = weaker binding; RNA-MaP array; FMN 200 µM where present
Cond: ligand present: flavin mononucleotide; designed as: ON switch for flavin mononucleotide
Express the result in nM but write the number alone.

These recorded examples may help you get a feel for the data.
UUGUACAUUCGAGGAUAUCGGAGAGAGAUCAUUCGAGAAGGCGAUUCAUGAUGUAUUAUCCUGGACAUGAGGAUCACCCAUGUA    65.9
UGGUACAACGGAGGAUAUCAUGUAAAUACAUGAGGAUCACCCAUGUCGUACGAGAGUACGGAGAUUGAGAAGGCCGUUGUACCU    16.1
CUUUAACUACAAUUACAUGAGGAUCACCCAUGUUUUGGGAUGCAGGAUAUGUGGUAUAUUAAUUAACAGAAGGGCAAUAAUUAA    38.9
CCACGUCACAUUUACAUGAGGAUCACCCAUGUCGAAAGACAUGAGGAUAUGCAUCCUAAUUGGAUGCAGAAGGCAUGGACGUGG    274
UUGGGCGUCGUAGGAUAUGUAGGAUAUUCCUACAUGAGGAUCACCCAUGUUGACAUGGAAGAAGGACAGAAGGACGAUGUCCAU    4.67

q: Which apparent Kd value belongs to CCACUCGAGCAGAAGGCAAUGAGGGUUAUACAUUGAGGAUAUGCUACGUAUGUGGUACAUGAGGAUCACCCAUGUAGCCUAUCU ?
a: 21.3

q: Another: AAGAAAGAAACAUAGGAUAUCAAGGAUAUAACAUGAGGAUCACCCAUGUAAAUACGAAAGUAUAAUGAGAAGGAUGGAUGAUCUUC
a: 122

Each recorded value in this set is attributed to the EternaBench riboswitch data.
